- procedure_text: Bi-directional Caco-2 permeability
- Format: in vitro ADME
- measurement_setup: human; Caco-2, apical to basolateral, 37 C, up to 90 minutes; read-out: AB Papp (cm/sec × 10^6)
A collection of compounds and their measured Papp A→B at 90 min
reported_property: Papp A→B at 90 min (×10⁻⁶ cm/s)

| compound | reported |
| --- | --- |
| CC(C)OC(=O)N[C@H]1CC[C@H](c2ncc(-c3ccc(NC(=O)OC[C@@H]4CCCN4C)cc3S(=O)(=O)NC(C)(C)C)s2)CC1 | 0.4 |
| CC(C)OC(=O)Nc1ccc(-c2cnc(C34CCC(NC(=O)OC(C)C)(CC3)CC4)s2)c(S(=O)(=O)NC(C)(C)C)c1 | 2.8 |
| CC(C)NC(=O)O[C@H]1CC[C@H](c2ncc(-c3ccc(NC(=O)OC(C)C)cc3S(=O)(=O)NC(C)(C)C)s2)CC1 | 9.4 |
| C[C@@H](NC(=O)Nc1ccc(-c2cnc(C3CCC(NC(=O)OC4COC4)CC3)s2)c(S(=O)(=O)NC(C)(C)C)c1)c1ccccc1 (stereo partly drawn) | 7.4 |
| C[C@H](NC(=O)Nc1ccc(-c2cnc(C3CCC(NC(=O)OC4COC4)CC3)s2)c(S(=O)(=O)NC(C)(C)C)c1)c1ccccc1F (stereo partly drawn) | 6.5 |
| CC(C)OC(=O)Nc1ccc(-c2sc(C3CCC(NC(=O)OC(C)C)CC3)nc2F)c(S(=O)(=O)NC(C)(C)C)c1 (stereo not drawn) | 5.1 |
